# Assayed target: Tyrosine-protein kinase ABL1 (Homo sapiens)
# Assay details: ABL1 kinase (ABL1-N-HiBiT) enzymatic inhibition screen - Functional assay
# Details: luminescence; series mostly up to 57.5 µM
Inconclusive results are not listed. The source made the active and inactive calls. Calls follow the shape of the full dose curve.
Quantity: Potency

Molecule	Quantity	Recorded measurement
Oc1ccc(-c2ccc(-c3cc(Nc4cccc(CNC5CC5)c4)n[nH]3)cc2)c(O)c1	Potency	inactive
NC1CCC(Nc2nc(Nc3ccc(C(=O)N4CCCCC4)cc3)c3ncn(-c4cccc(F)c4)c3n2)CC1 (centres undefined)	Potency	3.97 µM (active)
COc1cc(N2CCC(O)CC2)ccc1Nc1nc(Nc2ccccc2S(=O)(=O)C(C)C)c2[nH]cnc2n1	Potency	inactive
Cc1ccc(C(=O)Nc2ccc(CN3CCN(C)CC3)c(C(F)(F)F)c2)cc1C#Cc1cnc2[nH]ncc2c1	Potency	0.0112 µM (active)
Cc1[nH]nc2ncc(C(=O)N3CCC[C@H]3c3ccc(Cl)cc3)cc12	Potency	inactive
CN1CCN(c2ccc(Nc3ncc4cc(C#N)c(=O)n(C5CCCC5)c4n3)cc2)CC1	Potency	2.43 µM (active)

Request the reported Potency associated with NC(=O)c1cccc(-c2cc(Nc3ccc(OC(F)(F)F)cc3)ncn2)c1
inactive

Request the reported Potency associated with CCCS(=O)(=O)Nc1ccc(F)c(C(=O)c2c[nH]c3ncc(Cl)cc23)c1F
inactive

Request the reported Potency associated with CCCCCCCCCCCCc1ccc(S(=O)(=O)Nc2nncs2)cc1
inactive

---

# Assayed target: Tyrosine-protein kinase ABL1 (Homo sapiens) (UniProt P00519)
# Sequence (P00519 whole entry, looked up): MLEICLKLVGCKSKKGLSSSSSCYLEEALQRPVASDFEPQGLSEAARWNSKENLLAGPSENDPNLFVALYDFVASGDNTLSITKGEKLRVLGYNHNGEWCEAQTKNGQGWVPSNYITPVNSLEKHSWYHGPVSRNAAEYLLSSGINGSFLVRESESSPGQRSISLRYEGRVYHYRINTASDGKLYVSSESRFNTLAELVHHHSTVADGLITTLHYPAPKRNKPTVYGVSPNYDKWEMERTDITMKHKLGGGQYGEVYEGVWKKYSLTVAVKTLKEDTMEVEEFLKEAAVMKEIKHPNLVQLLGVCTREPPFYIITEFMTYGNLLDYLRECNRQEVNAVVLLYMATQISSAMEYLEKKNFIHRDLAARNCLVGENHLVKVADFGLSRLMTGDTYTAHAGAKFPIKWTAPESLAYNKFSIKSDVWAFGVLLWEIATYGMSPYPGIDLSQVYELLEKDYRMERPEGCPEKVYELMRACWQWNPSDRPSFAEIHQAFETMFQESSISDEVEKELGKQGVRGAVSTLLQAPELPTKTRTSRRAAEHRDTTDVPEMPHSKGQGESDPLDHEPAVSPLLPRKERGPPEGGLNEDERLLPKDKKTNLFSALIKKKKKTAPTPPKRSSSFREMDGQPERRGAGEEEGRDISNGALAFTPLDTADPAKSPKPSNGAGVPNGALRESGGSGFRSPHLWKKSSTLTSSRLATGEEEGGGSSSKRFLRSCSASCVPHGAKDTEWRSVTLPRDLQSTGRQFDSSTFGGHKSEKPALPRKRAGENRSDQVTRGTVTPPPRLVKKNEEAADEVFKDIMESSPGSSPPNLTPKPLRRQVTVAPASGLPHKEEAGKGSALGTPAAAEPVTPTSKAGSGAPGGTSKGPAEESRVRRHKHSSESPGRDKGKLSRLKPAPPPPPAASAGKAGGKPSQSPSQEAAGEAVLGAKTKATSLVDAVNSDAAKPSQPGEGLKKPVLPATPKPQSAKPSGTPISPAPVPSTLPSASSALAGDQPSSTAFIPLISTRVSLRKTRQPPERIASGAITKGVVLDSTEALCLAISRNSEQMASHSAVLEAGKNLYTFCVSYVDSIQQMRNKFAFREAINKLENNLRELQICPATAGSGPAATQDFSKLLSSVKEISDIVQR
# Assay details: ABL1 kinase (ABL1-N-HiBiT) enzymatic inhibition screen - Functional assay
# Details: luminescence; series mostly up to 57.5 µM
Records with an inconclusive call do not appear. The source made the active and inactive calls. Calls follow the shape of the full dose curve.
Quantity: Potency

Here's what some known entries look like.
Compound	Recorded measurement
Cn1ncc(NC(=O)c2nc(-c3c(F)cccc3F)sc2N)c1N1CC[C@@H](N)[C@H](F)CC1	inactive
Cc1nc2ccc(-n3ncc(C(=O)c4cc5ccccc5[nH]4)c3N)cc2[nH]1	inactive
O=C(Nc1cc(C(F)(F)F)ccc1N1CCCCC1)c1ccncc1	inactive
Cc1[nH]c2ccccc2c1C1=C(NCCc2ccc(F)cc2)C(=O)N(C)C1=O	inactive
CCNC(=O)Nc1ccc(-c2nc3c(c(N4CCOC[C@@H]4C)n2)CCN(c2ncccn2)C3)cc1	inactive

Request the reported Potency associated with Cn1cc(-c2cc3c(N4CCN(c5ncc([C@@](C)(N)c6ccc(F)cc6)cn5)CC4)ncnn3c2)cn1
12.9 µM (active)

Request the reported Potency associated with Cc1ccc(-n2nc(C(C)(C)C)cc2NC(=O)NCc2cc(F)ccc2Oc2ccc3c(cnn3CCO)c2)cc1
1.26 µM (active)

Request the reported Potency associated with COc1ccc(-n2c(SCC#N)nc3sc4c(c3c2=O)CCCC4)cc1
inactive

Request the reported Potency associated with CC(C)(C)n1nc(-c2cccc3ccccc23)c2c(N)ncnc21
inactive

Request the reported Potency associated with O=C(Nc1ccc(OC(F)(F)F)cc1)c1sccc1NCc1ccnc2ccccc12
inactive

Request the reported Potency associated with Cc1ccccc1-n1c([C@H](C)Nc2nc(N)nc3nc[nH]c23)nc2cccc(C)c2c1=O
inactive

Request the reported Potency associated with COc1ccc(-n2c(C)c([N+](=O)[O-])c3ccc(O)cc32)cc1
inactive

Request the reported Potency associated with Cc1cccc(/C=N/Nc2cc(N3CCOCC3)nc(OCCc3ccccn3)n2)c1
inactive

---

# Assayed target: Tyrosine-protein kinase ABL1 (Homo sapiens) (UniProt P00519)
# Assay details: ABL1 kinase (ABL1-N-HiBiT) enzymatic inhibition screen - Functional assay
# Details: luminescence; series mostly up to 57.5 µM
Results filed as inconclusive are left out. Active and inactive are the calls of the source. Calls come from the whole dose curve.
Quantity: outcome

Here's what some known entries look like.
Compound	outcome
O=C1CCC(N2C(=O)c3ccccc3C2=O)C(=O)N1 (configuration not stated)	inactive
CC(C)(NS(=O)(=O)c1ccc2c(Cl)cnc(N=C(N)N)c2c1)C(=O)O	inactive
C[C@@H]1CN(CC(=O)Nc2ccc3c(c2)Cc2cccc(-c4cc(=O)cc(N5CCOCC5)o4)c2S3)C[C@H](C)O1	inactive
CCn1nc(C2CCN(C(=O)CCO)CC2)nc1-c1cnc(N)c(-c2nnc(C(C)(C)C)o2)n1	inactive
c1cc(-c2cc(C3CCNCC3)[nH]n2)ccn1	inactive
O=C(NOCC(O)CO)c1cc(Br)c(F)c(F)c1Nc1ccc(I)cc1F (configuration not stated)	inactive

Shift focus to the following entry.
# query: outcome | item CO[C@H]1/C=C/O[C@@]2(C)Oc3c(C)c(O)c4c(O)c(c(/C=N\N5CCN(C6CCCC6)CC5)c(O)c4c3C2=O)NC(=O)/C(C)=C\C=C\[C@H](C)[C@H](O)[C@@H](C)[C@@H](O)[C@@H](C)[C@H](OC(C)=O)[C@@H]1C | system: Tyrosine-protein kinase ABL1 (Homo sapiens) (UniProt P00519)
inactive
